- experimental_target: Solute carrier family 15 member 1 (Homo sapiens, UniProt P46059)
- Sequence (P46059 whole entry): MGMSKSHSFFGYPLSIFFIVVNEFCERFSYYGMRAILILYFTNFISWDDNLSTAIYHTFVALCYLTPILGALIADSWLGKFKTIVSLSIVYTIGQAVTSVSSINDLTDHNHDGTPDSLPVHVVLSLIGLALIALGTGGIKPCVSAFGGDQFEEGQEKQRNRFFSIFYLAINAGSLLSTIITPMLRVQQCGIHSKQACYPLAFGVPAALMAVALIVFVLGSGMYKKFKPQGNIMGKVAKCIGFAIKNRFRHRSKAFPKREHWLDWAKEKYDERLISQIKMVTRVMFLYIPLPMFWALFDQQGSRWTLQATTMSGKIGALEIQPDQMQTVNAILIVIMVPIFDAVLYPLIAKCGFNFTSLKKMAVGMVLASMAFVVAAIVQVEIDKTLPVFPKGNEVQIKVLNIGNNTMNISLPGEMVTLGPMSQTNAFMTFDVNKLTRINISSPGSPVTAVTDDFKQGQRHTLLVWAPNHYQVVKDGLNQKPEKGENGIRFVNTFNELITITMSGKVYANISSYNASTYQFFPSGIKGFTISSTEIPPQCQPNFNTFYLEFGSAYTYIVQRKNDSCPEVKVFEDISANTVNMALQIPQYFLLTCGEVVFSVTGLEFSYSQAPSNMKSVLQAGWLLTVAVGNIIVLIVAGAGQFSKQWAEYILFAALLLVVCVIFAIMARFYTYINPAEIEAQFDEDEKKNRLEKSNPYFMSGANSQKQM
- protocol_details: Binding affinity against membrane transport protein PEPT1 in human Caco-2 cells
- Assay type: cell-based
pKi: −log10 of the molar value. Non-standard residues stand in square brackets, D forms with d. Residues, ends and D or L forms follow the SMILES beside them.
Returns TRUE if the recorded pKi is greater than or equal to 3, and FALSE otherwise.

INPUT: Hello, I need to know if O=C(O)C[C@H](NC(=O)[C@@H]1CCCN1)C(=O)O (stereo in doubt; 64) has measured pKi not below 3. Thanks!
OUTPUT: FALSE

INPUT: Hello, I need to know if `CO[C@@]1(NC(=O)Cc2cccs2)C(=O)N2C(C(=O)O)=C(COC(N)=O)CS[C@@H]21` has measured pKi not below 3. Thanks!
OUTPUT: FALSE

INPUT: Hello, I need to know if `Cc1onc(-c2ccccc2Cl)c1C(=O)N[C@@H]1C(=O)N2[C@@H]1SC(C)(C)[C@@H]2C(=O)O` has measured pKi not below 3. Thanks!
OUTPUT: FALSE

INPUT: Hello, I need to know if `C[C@H](N)C(=O)N[C@H](CCCCN)C(=O)O` has measured pKi not below 3. Thanks!
OUTPUT: FALSE

INPUT: Hello, I need to know if CC(C)C[C@@H](N)C(=O)NCC(=O)NCC(=O)O (H-[dL]-Gly-Gly-OH) has measured pKi not below 3. Thanks!
OUTPUT: FALSE

INPUT: Hello, I need to know if `C[C@H](N)C(=O)NC(=O)C1CCCCC1` has measured pKi not below 3. Thanks!
OUTPUT: FALSE

INPUT: Hello, I need to know if `C[C@H](N)C(=O)N[C@H](Cc1ccccc1)C(=O)N[C@@H](C)C(=O)O` has measured pKi not below 3. Thanks!
OUTPUT: FALSE

INPUT: Hello, I need to know if `C[C@H](N)C(=O)N[C@H](C)C(=O)N[C@@H](C)C(=O)O` has measured pKi not below 3. Thanks!
OUTPUT: FALSE

INPUT: Hello, I need to know if CC(C)C[C@H](N)C(=O)N[C@@H](C)C(=O)N[C@@H](CCCNC(=N)N)C(=O)O (H-Leu-Ala-Arg-OH) has measured pKi not below 3. Thanks!
OUTPUT: TRUE

INPUT: Hello, I need to know if `C[C@H](NC(=O)[C@@H](N)Cc1ccc(OCc2ccccc2)cc1)C(=O)O` has measured pKi not below 3. Thanks!
OUTPUT: TRUE

INPUT: Hello, I need to know if `CC1(C)S[C@@H]2[C@H](NC(=O)COc3ccccc3)C(=O)N2[C@H]1C(=O)O` has measured pKi not below 3. Thanks!
OUTPUT: FALSE

INPUT: Hello, I need to know if `C[C@@H](N)C(=O)N[C@@H](CCCCN)C(=O)O` has measured pKi not below 3. Thanks!
OUTPUT: FALSE

INPUT: Hello, I need to know if NCCCC[C@H](N)C(=O)N[C@@H](CCC(=O)O)C(=O)O (H-Lys-Glu-OH) has measured pKi not below 3. Thanks!
OUTPUT: FALSE

INPUT: Hello, I need to know if CC(C)C[C@H](NC(=O)[C@@H]1CCCN1C(=O)[C@H](C)N)C(=O)O (H-Ala-Pro-Leu-OH) has measured pKi not below 3. Thanks!
OUTPUT: TRUE

INPUT: Hello, I need to know if NCCCC[C@H](NC(=O)[C@H](Cc1ccccc1)NC(=O)[C@@H]1CCCN1)C(=O)O (H-Pro-Phe-Lys-OH) has measured pKi not below 3. Thanks!
OUTPUT: FALSE

INPUT: Hello, I need to know if CC(C)C[C@H](NC(=O)[C@H](CC(C)C)NC(=O)[C@@H](N)Cc1ccccc1)C(=O)O (H-Phe-Leu-Leu-OH) has measured pKi not below 3. Thanks!
OUTPUT: TRUE

INPUT: Hello, I need to know if `CC1=C(C(=O)O)N2C(=O)[C@@H](NC(=O)[C@H](N)C3=CCC=CC3)[C@H]2SC1` has measured pKi not below 3. Thanks!
OUTPUT: FALSE
